system: cGMP-specific 3',5'-cyclic phosphodiesterase (Homo sapiens, UniProt O76074)
test name: Inhibition of human recombinant PDE5A1 using FAM-labelled cGMP as substrate after 60 mins by fluorescence polarization assay
property: IC50 (nM)
Respond with the bare value in nM.

The cases that follow already have their IC50 on record.
COc1ccc(CNc2c3c(nc4ccc(Br)cc24)CCN(C(C)=O)C3)cc1Cl ... 3.1
CC(=O)N1CCc2nc3ccc(C#N)cc3c(NCc3ccc(OC(F)(F)F)c(Cl)c3)c2C1 ... 337
COc1c(F)cc(CNc2c3c(nc4ccc(C#N)cc24)CCN(C(C)=O)C3)cc1Cl ... 0.32
CC(=O)N1CCc2nc3ccc(C#N)cc3c(NCc3ccnc(Cl)c3)c2C1 ... 57
COc1ccc(CNc2c3c(nc4ccc(C#N)cc24)CCN(C)C3)cc1Cl ... 0.59

Input line: Can you look up the measured IC50 of COc1ccc2nc3c(c(NCc4ccc(OC)c(Cl)c4)c2c1)CN(C(C)=O)CC3 for me?
Output line: 45.2

Input line: Requested field: IC50. Item: CC(=O)N1CCc2nc3ccc(C#N)cc3c(NCc3ccc(F)c(Cl)c3)c2C1
Output line: 1.5

Input line: What measured IC50 goes with CCN1CCc2nc3ccc(C#N)cc3c(NCc3ccc(OC)c(Cl)c3)c2C1 ?
Output line: 0.19
